- Species on record: Homo sapiens
- Experiment: Potency based on concentration of sweetener which matches the sweetness recognition threshold of sucrose (~2%)
- Type: functional, organism-based
Recorded Metric: Log potency
Give bare numbers.

Compound	Log potency
CC(NC(=O)C(N)CC(=O)O)C(=O)NC1CCCC1 (stereo unspecified)	1.7

Report Log potency for each item below.
1. N#CN/C(=N\CC(=O)O)Nc1ccc(C#N)cc1
2. N#Cc1ccc(N/C(=N/CC(=O)O)NC2CCCCCCC2)cc1
3. C[C@@H](N/C(=N\CC(=O)O)Nc1cc(Cl)cc(Cl)c1)c1ccccc1
4. CC(NC(=O)C(N)CC(=O)O)C(=O)NC1C(C)(C)SC1(C)C (stereo unspecified)
5. N#Cc1ccc(NC(=O)NC(CC(=O)O)c2ccccc2)cc1 (stereo unspecified)

output:
[3.85, 5.23, 5.08, 3.3, 4]

Value sought for every listed compound: Log potency.
1. N#Cc1ccc(N/C(S)=N/CCC(=O)O)cc1
2. N#CN/C(=N\CCC(=O)O)Nc1ccc(C#N)cc1
3. CC12CCC(C1)C(C)(C)C2OC(=O)C(NC(=O)C(N)CC(=O)O)c1cccs1 (stereo unspecified)
4. N#Cc1ccc(NC(=O)NCCC(=O)O)cc1
5. CC12CCC(C1)C(C)(C)C2OC(=O)C(NC(=O)C(N)CC(=O)O)c1ccco1 (stereo unspecified)

output:
3.32
2.95
3.38
2.65
4.22

---

- Species on record: Homo sapiens
- Experiment: Potency based on concentration of sweetener which matches the sweetness recognition threshold of sucrose (~2%)
- Format: functional, organism-based
Recorded Metric: Log potency
Numbers only.

Here are 5 compounds together with their reported answers.
Compound	Log potency
N#Cc1ccc(NC(=O)NC(CC(=O)O)c2cccnc2)cc1 (stereo unspecified)	4.3
N#Cc1ccc(N/C(=N/CC(=O)O)NS(=O)(=O)c2ccccc2)cc1	4.48
O=C(O)CCNC(=O)Nc1ccc([N+](=O)[O-])cc1	2.85
COC(=O)C(Cc1ccccc1)NC(=O)C(CC(=O)O)/N=C(\S)Nc1ccc(C#N)cc1 (stereo unspecified)	4.7
N#Cc1ccc(NC(=O)NC(CC(=O)O)c2ccncc2)cc1 (stereo unspecified)	3.3

Would you kindly look at the next entry?
Quick note, Log potency for `COC(=O)[C@H](Cc1ccccc1)NC(=O)[C@@H](N)CC(=O)O` landed at 2.26

---

- Organism: Homo sapiens
- Experiment: Potency based on concentration of sweetener which matches the sweetness recognition threshold of sucrose (~2%)
- Format: functional, organism-based
Recorded Metric: Log potency

Past entries and their recorded results:
Molecule	Log potency
N#Cc1ccc(N/C(=N/CC(=O)O)NCc2ccccc2)cc1	4.48
CC(NC(=O)C(N)CC(=O)O)C(=O)NC1C(C)(C)CCC1(C)C (stereo not given)	2.9
O=C(O)C/N=C(\NCc1ccccc1)Nc1cc(Cl)cc(Cl)c1	4.9
COC(=O)C(Cc1ccccc1)NC(=O)C(CC(=O)O)NC(=O)Nc1ccc(C#N)cc1 (stereo not given)	4

# Log potency (molecule: `C[C@@H](N/C(=N\CC(=O)O)Nc1ccc(C#N)cc1)c1ccccc1` ) is 4.45
